# tested.target: T1, ZFP SBS#888 (synthetic)
# T1 chain: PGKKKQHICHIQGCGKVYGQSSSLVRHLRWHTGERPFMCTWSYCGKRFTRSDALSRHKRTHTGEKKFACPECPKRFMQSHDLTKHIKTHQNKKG
# measurement.notes: EMSA
# experimental.parameters: tags: MBP fusion

binder	units.of.measure	Kd
TCAGTGGTAT (dsDNA) DNA 1: TCAGTGGTAT DNA 2: ATACCACTGA	nM	14
